The compounds below have reported IC50 for Serine palmitoyltransferase 1 (Homo sapiens).
recorded endpoint: IC50 (µM)

(a) CCCCCCC(=O)N1CCc2c(c(-c3ccc(C(C)(C)C(=O)O)cc3)nn2C)C1
(b) CCCCCCC(=O)c1cc(-c2ccc(CC(=O)O)cc2)c2nccn2c1
Lookup: Smaller IC50 value, a vs b ? Selection: enter the item's label.
Found: b
(b: 0.00519 µM, a: 0.0639 µM)

====

assay details: Cmax in Sprague-Dawley rat at 3 mg/kg,po
Assay type: ADME, organism-based
Set-up: dose 3 mg/kg, route oral
test parameters: in vivo
recorded endpoint: Cmax (ng/mL)

(P) CCCCCCC(=O)c1cc(-c2ccc(CC(=O)O)cc2)c2nccn2c1
(Q) CCCCCCC(=O)N1CCc2c(c(-c3ccc(C(C)(C)C(=O)O)cc3)nn2C)C1
Lookup: // which entry has the larger Cmax value, P or Q ? The response must carry the label of the picked entry.
Found: P

====

assay details: Oral bioavailability in Sprague-Dawley rat at 3 mg/kg
Format: ADME, organism-based
test parameters: in vivo
recorded endpoint: bioavailability (%)

(I) CCCCCCC(=O)N1CCc2c(c(-c3ccc(C(C)(C)C(=O)O)cc3)nn2C)C1
(II) CCCCCCC(=O)c1cc(-c2ccc(CC(=O)O)cc2)c2nccn2c1
Lookup: Would you mind telling me which has the lower recorded bioavailability between I and II ? State the label of the item chosen.
Found: I
(I: 33%, II: 75%)

====

assay details: Half life in Sprague-Dawley rat at 3 mg/kg,po
Assay type: ADME, organism-based
test parameters: in vivo
recorded endpoint: half-life (h)

(A) CCCCCCC(=O)N1CCc2c(c(-c3ccc(C(C)(C)C(=O)O)cc3)nn2C)C1
(B) CCCCCCC(=O)c1cc(-c2ccc(CC(=O)O)cc2)c2nccn2c1
Lookup: Which value of half-life is numerically greater: that of A or that of B ? Write the label of whichever entry you select.
Found: A
(A: 7.65 h, B: 1.48 h)

====

assay details: Half life in Sprague-Dawley rat at 1 mg/kg, iv
Format: ADME, organism-based
test parameters: in vivo
recorded endpoint: half-life (h)

(1) CCCCCCC(=O)N1CCc2c(c(-c3ccc(C(C)(C)C(=O)O)cc3)nn2C)C1
(2) CCCCCCC(=O)c1cc(-c2ccc(CC(=O)O)cc2)c2nccn2c1
Lookup: Returns: the argument ( 1 or 2 ) having the larger half-life. Lab note: record the label of whichever item you select.
Found: 1
(1: 5.17 h, 2: 2.13 h)

====

assay details: Volume of distribution at steady state in Sprague-Dawley rat at 1 mg/kg, iv
Assay type: ADME, organism-based
test parameters: in vivo, read-out: Vdss
recorded endpoint: Vd (L/kg)

(A) CCCCCCC(=O)N1CCc2c(c(-c3ccc(C(C)(C)C(=O)O)cc3)nn2C)C1
(B) CCCCCCC(=O)c1cc(-c2ccc(CC(=O)O)cc2)c2nccn2c1
Lookup: Between A and B , which one shows the smaller Vd number? Answer = label.
Found: B
(B: 0.574 L/kg, A: 8.33 L/kg)

====

assay details: Drug uptake in diet-induced obese C57Bl/6 mouse liver at 25 mg/kg, po qd for 4 weeks measured 6 hrs post last dose
Type: ADME, organism-based
test parameters: read-out: Drug uptake
recorded endpoint: concentration at 6 h (ng/g)
Report the figure in ng/g without appending any unit label.

Lookup: Returns the measured concentration at 6 h for the input compound. Input: `CCCCCCC(=O)N1CCc2c(c(-c3ccc(C(C)(C)C(=O)O)cc3)nn2C)C1`
Found: 119000

====

assay details: Drug uptake in diet-induced obese C57Bl/6 mouse liver at 3 mg/kg, po qd for 4 weeks measured 6 hrs post last dose
Type: ADME, organism-based
test parameters: read-out: Drug uptake
recorded endpoint: concentration at 6 h (ng/g)

(P) CCCCCCC(=O)N1CCc2c(c(-c3ccc(C(C)(C)C(=O)O)cc3)nn2C)C1
(Q) CCCCCCC(=O)c1cc(-c2ccc(CC(=O)O)cc2)c2nccn2c1
Lookup: Choose between P and Q : whose measured concentration at 6 h value is numerically larger? State the label of the item chosen.
Found: P

====

assay details: Drug uptake in diet-induced obese C57Bl/6 mouse liver at 60 mg/kg, po qd for 4 weeks measured 6 hrs post last dose
Assay type: ADME, organism-based
test parameters: read-out: Drug uptake
recorded endpoint: concentration at 6 h (ng/g)
Kindly answer with a numeric value in ng/g, unit omitted.

Lookup: Look up concentration at 6 h: `CCCCCCC(=O)c1cc(-c2ccc(CC(=O)O)cc2)c2nccn2c1`
Found: 181000

====

assay details: Drug uptake in diet-induced obese C57Bl/6 mouse serum at 30 mg/kg, po qd for 4 weeks measured 6 hrs post last dose
Format: ADME, organism-based
test parameters: read-out: Drug uptake
recorded endpoint: concentration at 6 h (ng/mL)
Respond numerically; units are ng/mL and should not be typed.

Lookup: Consider the compound shown here: `CCCCCCC(=O)c1cc(-c2ccc(CC(=O)O)cc2)c2nccn2c1` What is its recorded concentration at 6 h?
Found: 677

====

assay details: Drug uptake in diet-induced obese C57Bl/6 mouse serum at 60 mg/kg, po qd for 4 weeks measured 6 hrs post last dose
Assay type: ADME, organism-based
test parameters: read-out: Drug uptake
recorded endpoint: concentration at 6 h (ng/mL)
Write it as a number; the unit ng/mL goes unstated.

Lookup: Entry under review: `CCCCCCC(=O)c1cc(-c2ccc(CC(=O)O)cc2)c2nccn2c1` . Reported concentration at 6 h?
Found: 3350

====

assay details: Ratio of drug uptake in diet-induced obese C57Bl/6 mouse liver to serum at 25 mg/kg, po qd for 4 weeks measured 6 hrs post last dose
Type: ADME, organism-based
recorded endpoint: Kp at 6 h
Hey, just send me the number, nothing else.

Lookup: Entry under review: `CCCCCCC(=O)N1CCc2c(c(-c3ccc(C(C)(C)C(=O)O)cc3)nn2C)C1` . Reported Kp at 6 h?
Found: 99

====

assay details: Lipophilicity, log P of compound
Format: physicochemical
test parameters: octanol/water
recorded endpoint: logP

                              sample_smiles  reported
0  CCCCCCC(=O)N1CCc2c(c(-c3ccc(C(C)(C)C(=O)O)cc3)nn2C)C1      4.66
1  CCCCCCC(=O)c1cc(-c2ccc(CC(=O)O)cc2)c2nccn2c1      3.97

====

assay details: AUC (0 to 24 hrs) in Sprague-Dawley rat at 3 mg/kg,po
Type: ADME, organism-based
Set-up: time < 24 hr, dose 3 mg/kg, route oral
test parameters: in vivo
recorded endpoint: AUC(0-t) at 24 h (ng·h/mL)

(a) CCCCCCC(=O)c1cc(-c2ccc(CC(=O)O)cc2)c2nccn2c1
(b) CCCCCCC(=O)N1CCc2c(c(-c3ccc(C(C)(C)C(=O)O)cc3)nn2C)C1
Lookup: Between item a and item b , which reported AUC(0-t) at 24 h is smaller? The response must carry the label of the picked entry.
Found: b

====

assay details: Drug uptake in diet-induced obese C57Bl/6 mouse serum at 3 mg/kg, po qd for 4 weeks measured 6 hrs post last dose
Type: ADME, organism-based
test parameters: read-out: Drug uptake
recorded endpoint: concentration at 6 h (ng/mL)

(I) CCCCCCC(=O)c1cc(-c2ccc(CC(=O)O)cc2)c2nccn2c1
(II) CCCCCCC(=O)N1CCc2c(c(-c3ccc(C(C)(C)C(=O)O)cc3)nn2C)C1
Lookup: Higher concentration at 6 h between I and II ? Mark your answer with the label of the selected entry.
Found: II
